tested on: MiaPaCa-2 cells; assay: MTS assay of MiaPaCa2 cultures, single 50 μM dose; format: cell-based, human; conditions: MiaPaCa2, 50 μM, 48 hours, run 4
The following compounds are listed with their measured MTS assay result, run 4 values.

Before answering, review these 2 worked examples.
Cc1c(O)cc2c(c1C)O[C@](C)(CCC[C@H](C)CCC[C@H](C)CCCC(C)C)CC2 = 0.25
CC(C)=CCC/C(C)=C/CC/C(C)=C/CC[C@]1(C)CCc2cc(O)c(C)c(C)c2O1 = 0.128

IN: Need MTS assay result, run 4 of `CC(C)=CCC/C(C)=C/CC/C(C)=C/CC[C@]1(C)CCc2cc(O)cc(C)c2O1` , thanks.
OUT: 0.232

IN: Need MTS assay result, run 4 of `CC(C)=CCC/C(C)=C/CC/C(C)=C/CC/C(C)=C/CO` , thanks.
OUT: 0.198

---

tested on: MiaPaCa-2 cells; experiment: MTS assay of MiaPaCa2 cultures, single 50 μM dose; format: cell-based, human; conditions: MiaPaCa2, 50 μM, 24 hours, run 9
assay.readout: MTS assay result, run 9
# respond with the number and nothing more

Before answering, review these 3 worked examples.
CC(C)=CCC/C(C)=C/CC/C(C)=C/CC[C@]1(C)CCc2cc(O)cc(C)c2O1 = 0.170
O=C(O)CCC(=O)O = 0.232
CC(C)=CCC/C(C)=C/CC/C(C)=C/CC[C@]1(C)CCc2c(C)c(O)cc(C)c2O1 = 0.176

Now consider the entry below.
IN: Need MTS assay result, run 9 of `Cc1c(O)cc2c(c1C)O[C@](C)(CCC[C@H](C)CCC[C@H](C)CCCC(C)C)CC2` , thanks.
OUT: 0.269

---

tested on: SW1990 pancreatic cancer cells; assay: MTS assay of SW1990 cultures, single 50 μM dose; type: cell-based, human; settings: SW1990, 50 μM, 24 hours, run 9
assay.readout: MTS assay result, run 9
# respond with the number and nothing more

Before answering, review these 3 worked examples.
Cc1c(O)cc2c(c1C)O[C@](C)(CCC[C@H](C)CCC[C@H](C)CCCC(C)C)CC2 = 0.171
CC(C)=CCC/C(C)=C/CC/C(C)=C/CC[C@]1(C)CCc2c(C)c(O)cc(C)c2O1 = 0.145
CC(C)=CCC/C(C)=C/CC/C(C)=C/CC[C@]1(C)CCc2cc(O)cc(C)c2O1 = 0.143

IN: Need MTS assay result, run 9 of `O=C(O)CCC(=O)O` , thanks.
OUT: 0.160

IN: Need MTS assay result, run 9 of Cc1c(C)c2c(c(C)c1OC(=O)CCC(=O)O)CC[C@@](C)(CCC[C@H](C)CCC[C@H](C)CCCC(C)C)O2 [TS, tocopherol succinate] , thanks.
OUT: 0.162

IN: Need MTS assay result, run 9 of `CC(C)=CCC/C(C)=C/CC/C(C)=C/CC/C(C)=C/CO` , thanks.
OUT: 0.136

IN: Need MTS assay result, run 9 of `CC(C)=CCC/C(C)=C/CC/C(C)=C/CC[C@]1(C)CCc2cc(O)c(C)c(C)c2O1` , thanks.
OUT: 0.157

IN: Need MTS assay result, run 9 of `Cc1c(C)c2c(c(C)c1O)CC[C@@](C)(CCC[C@H](C)CCC[C@H](C)CCCC(C)C)O2` , thanks.
OUT: 0.180

---

Tested on: MiaPaCa-2 cells
Test: MTS assay of MiaPaCa2 cultures, single 50 μM dose
Assay type: cell-based, human
Conditions: MiaPaCa2, 50 μM, 72 hours, run 3
Protocol: MiaPaCa-2 cells were cultured in complete DMEM media containing 10% fetal bovine serum (FBS) and 1% penicillin-streptomycin, and 1% L-glutamine. BxPc-3 pancreatic cancer cells were cultured in complete RPMI media containing 10% fetal bovine serum (FBS), and 1% penicillin-streptomycin, 1% HEPES buffer, 1% sodium pyruvate and 1% L-glutamine HPDE6-C7 cells were cultured in serum-free keratinocyte SFM media. All cells were maintained at 37° C. in a humidified incubator with 5% CO2. […]
The following compounds are listed with their measured MTS assay result, run 3 values.
# respond with the number and nothing more

Cc1c(C)c2c(c(C)c1OC(=O)CCC(=O)O)CC[C@@](C)(CCC[C@H](C)CCC[C@H](C)CCCC(C)C)O2 [TS, tocopherol succinate] = 1.016
CC(C)=CCC/C(C)=C/CC/C(C)=C/CC[C@]1(C)CCc2cc(O)c(C)c(C)c2O1 = 0.876
CC(C)=CCC/C(C)=C/CC/C(C)=C/CC/C(C)=C/CO = 0.757
CC(C)=CCC/C(C)=C/CC/C(C)=C/CC[C@]1(C)CCc2cc(O)cc(C)c2O1 = 0.605
Cc1c(O)cc2c(c1C)O[C@](C)(CCC[C@H](C)CCC[C@H](C)CCCC(C)C)CC2 = 0.46

IN: Need MTS assay result, run 3 of `Cc1c(C)c2c(c(C)c1O)CC[C@@](C)(CCC[C@H](C)CCC[C@H](C)CCCC(C)C)O2` , thanks.
OUT: 0.464

IN: Need MTS assay result, run 3 of `O=C(O)CCC(=O)O` , thanks.
OUT: 0.566

IN: Need MTS assay result, run 3 of `CC(C)=CCC/C(C)=C/CC/C(C)=C/CC[C@]1(C)CCc2c(C)c(O)cc(C)c2O1` , thanks.
OUT: 0.328

---

tested on: SW1990 pancreatic cancer cells; test: MTS assay of SW1990 cultures, single 50 μM dose; format: cell-based, human; settings: SW1990, 50 μM, 48 hours, run 3
assay.readout: MTS assay result, run 3
# respond with the number and nothing more

IN: Please provide the recorded MTS assay result, run 3 for `Cc1c(O)cc2c(c1C)O[C@](C)(CCC[C@H](C)CCC[C@H](C)CCCC(C)C)CC2` , tested on SW1990 pancreatic cancer cells.
OUT: 0.14

IN: Please provide the recorded MTS assay result, run 3 for Cc1c(C)c2c(c(C)c1OC(=O)CCC(=O)O)CC[C@@](C)(CCC[C@H](C)CCC[C@H](C)CCCC(C)C)O2 [TS, tocopherol succinate] , tested on SW1990 pancreatic cancer cells.
OUT: 0.16

IN: Please provide the recorded MTS assay result, run 3 for `CC(C)=CCC/C(C)=C/CC/C(C)=C/CC[C@]1(C)CCc2c(C)c(O)cc(C)c2O1` , tested on SW1990 pancreatic cancer cells.
OUT: 0.09

IN: Please provide the recorded MTS assay result, run 3 for `CC(C)=CCC/C(C)=C/CC/C(C)=C/CC/C(C)=C/CO` , tested on SW1990 pancreatic cancer cells.
OUT: 0.13

---

system: MiaPaCa-2 cells; assay: MTT assay of MiaPaCa2 cultures, single 50 μM dose; assay type: cell-based, human; design: unit not given here; details: MiaPaCa2, 50 μM, 120 hours (5 days)
assay.readout: rel amt (relative value set to the control)

Before answering, review these 3 worked examples.
CC(C)=CCC/C(C)=C/CC/C(C)=C/CC/C(C)=C/CO [GG, geranylgeraniol] = 93
CC(C)=CCC/C(C)=C/CC/C(C)=C/CC[C@]1(C)CCc2cc(O)cc(C)c2O1 [T3 delta, delta tocotrienol] = 72
Cc1c(C)c2c(c(C)c1O)CC[C@@](C)(CCC[C@H](C)CCC[C@H](C)CCCC(C)C)O2 [T alpha, alpha tocopherol] = 89

IN: Need rel amt (relative value set to the control) of O=C(O)CCC(=O)O [SA, succinic acid] , thanks.
OUT: 80

IN: Need rel amt (relative value set to the control) of CC(C)=CCC/C(C)=C/CC/C(C)=C/CC[C@]1(C)CCc2cc(O)c(C)c(C)c2O1 [T3 gamma, gamma tocotrienol] , thanks.
OUT: 2

IN: Need rel amt (relative value set to the control) of CC(C)=CCC/C(C)=C/CC/C(C)=C/CC[C@]1(C)CCc2c(C)c(O)cc(C)c2O1 [T3 beta, beta tocotrienol] , thanks.
OUT: 53

IN: Need rel amt (relative value set to the control) of Cc1c(O)cc2c(c1C)O[C@](C)(CCC[C@H](C)CCC[C@H](C)CCCC(C)C)CC2 [T gamma] , thanks.
OUT: 87

IN: Need rel amt (relative value set to the control) of Cc1c(C)c2c(c(C)c1OC(=O)CCC(=O)O)CC[C@@](C)(CCC[C@H](C)CCC[C@H](C)CCCC(C)C)O2 [TS, tocopherol succinate] , thanks.
OUT: 43

---

Test system: SW1990 pancreatic cancer cells
Experiment: MTS assay of SW1990 cultures, single 50 μM dose
Type: cell-based, human
Details: SW1990, 50 μM, 48 hours, run 4
Protocol: SW1990 pancreatic cancer cells […] were cultured in complete DMEM media containing 10% fetal bovine serum (FBS) and 1% penicillin-streptomycin, and 1% L-glutamine. BxPc-3 pancreatic cancer cells were cultured in complete RPMI media containing 10% fetal bovine serum (FBS), and 1% penicillin-streptomycin, 1% HEPES buffer, 1% sodium pyruvate and 1% L-glutamine. […] Cell viability was measured using MTS assay at preselect times of 24, 48, or 72 hours after treatment.
assay.readout: MTS assay result, run 4
# respond with the number and nothing more

CC(C)=CCC/C(C)=C/CC/C(C)=C/CC[C@]1(C)CCc2c(C)c(O)cc(C)c2O1 = 0.104
Cc1c(O)cc2c(c1C)O[C@](C)(CCC[C@H](C)CCC[C@H](C)CCCC(C)C)CC2 = 0.141
O=C(O)CCC(=O)O = 0.138

IN: Need MTS assay result, run 4 of `Cc1c(C)c2c(c(C)c1O)CC[C@@](C)(CCC[C@H](C)CCC[C@H](C)CCCC(C)C)O2` , thanks.
OUT: 0.154
